- Test system: MIWI (PIWIL1) piRISC loaded with L1MC piRNA (30 nt);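 further: 1 nM active piRISC with 0.1 nM target library at 33 °C single turnover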
- Test description: pre-steady-state target cleavage rate (min^-1); MIWI and MILI are mouse PIWI proteins and EfPiwi is from a freshwater sponge; tags in brackets are library labels; higher = faster piRNA-guided slicing of the target;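 further: 1 nM active piRISC with 0.1 nM target library at 33 °C single turnover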
- Condition info: guide: L1MC piRNA 5'p-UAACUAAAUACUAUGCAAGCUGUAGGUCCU; auxiliary factor: 500 nM mouse GTSF1
Whole data set: some 8,200 sequences, median “pre-steady-state target cleavage rate” near 0.024, cut for the highest 2% near 1.3. Only a selection was taken, and the highest values are over-represented in it overall.
Here, each record is paired with measured pre-steady-state target cleavage rate data.

>  <Construct sequence>
UCCUCCUACACCUUGCAUAGAAUUUAGUUA

>  <pre-steady-state target cleavage rate>
0.341

$$$$
>  <Construct sequence>
UCCUCCUACAGCUUGCAUAGUAAUUAGUAA

>  <pre-steady-state target cleavage rate>
0.347

$$$$
>  <Construct sequence>
UCGACCUACAGCUCUGCAUAGUAUUUAGUUA

>  <pre-steady-state target cleavage rate>
1.32

$$$$
>  <Construct sequence>
AGGACCUACAGCUUGCAUAGAAUUUUGUUA

>  <pre-steady-state target cleavage rate>
0.501

$$$$
>  <Construct sequence>
UCCUGGAACAGCUUGCAUAGUAUUUGGUUA

>  <pre-steady-state target cleavage rate>
0.781

$$$$
>  <Construct sequence>
UCGACCAACAGCUUCCAUAGUAUUUAGUUA

>  <pre-steady-state target cleavage rate>
0.0723

$$$$
>  <Construct sequence>
UCCUGGUACAGCUAGGAUAGUAUUUAGUUA

>  <pre-steady-state target cleavage rate>
0.611

$$$$
>  <Construct sequence>
UCGACCUACAGCUUGUAUAGUAUUUAGUUA

>  <pre-steady-state target cleavage rate>
1.7

$$$$
>  <Construct sequence>
UCCUGGAACAGCUUGGAUAGUAUUUAGUUA

>  <pre-steady-state target cleavage rate>
1.18

$$$$
>  <Construct sequence>
UCCUGGAACAGCUUGCUUAGUAAUUAGUUA

>  <pre-steady-state target cleavage rate>
0.485

$$$$
>  <Construct sequence>
UCGACCUACAGCUUGCUAUAGUAUUUAGUUA

>  <pre-steady-state target cleavage rate>
0.0661

$$$$
>  <Construct sequence>
AGGACCAACAGCUUGGAUAGUAUUUAGUUA

>  <pre-steady-state target cleavage rate>
1.41

$$$$
>  <Construct sequence>
AGGACCUACAGCUAGCAUAGUAUUUAGUUA

>  <pre-steady-state target cleavage rate>
1.16

$$$$
>  <Construct sequence>
UCCUGCUACAGCUCUGCAUAGUAUUUAGUUA

>  <pre-steady-state target cleavage rate>
0.851

$$$$
>  <Construct sequence>
UCCUGGAUCAGCUUGCAUUGUUUUUAGUUA

>  <pre-steady-state target cleavage rate>
0.0337

$$$$
>  <Construct sequence>
UGGACCUACAGCUUGCUAUAGUAUUUAGUUA

>  <pre-steady-state target cleavage rate>
0.0205

$$$$
>  <Construct sequence>
AGGACCUACUGCUUGCUUAGUAUUUAGUUA

>  <pre-steady-state target cleavage rate>
1.39

$$$$
>  <Construct sequence>
UCCACCUACAGCUUGCAUAAUAUUUAGUUA

>  <pre-steady-state target cleavage rate>
0.552

$$$$
>  <Construct sequence>
AGGACCUUCAGCUUGCAUAGUAUUUUCAAA

>  <pre-steady-state target cleavage rate>
0.311

$$$$
>  <Construct sequence>
AGGACCUACAGCUUGCAUAGUUAAUUCAAA

>  <pre-steady-state target cleavage rate>
0.786

$$$$
>  <Construct sequence>
UCCUGCUACAGCUUGCAUGUAUUUAGUUA

>  <pre-steady-state target cleavage rate>
0.413

$$$$
>  <Construct sequence>
UGGACCUACAGCUUGUCAUAGUAUUUAGUUA

>  <pre-steady-state target cleavage rate>
0.706

$$$$
>  <Construct sequence>
AGGACCUACAGCUUGGCAUAGUAUUUAGUUA

>  <pre-steady-state target cleavage rate>
1.17

$$$$
>  <Construct sequence>
AGGACCUACAGCUUGCAUAGUAAAAAGUUA

>  <pre-steady-state target cleavage rate>
0.489

$$$$
>  <Construct sequence>
UCCUGGAUCAGCUUGCAUAGUCUUUAGUUA

>  <pre-steady-state target cleavage rate>
0.841

$$$$
>  <Construct sequence>
UCCUGGAACUGCAUGCAUAGUAUUUAGUUA

>  <pre-steady-state target cleavage rate>
0.442

$$$$
>  <Construct sequence>
UCCACCUACAGCUCUGCAUAGUAUUUAGUUA

>  <pre-steady-state target cleavage rate>
0.862

$$$$
>  <Construct sequence>
UCCUGCUACAGCUUGGAAAGUAUUUAGUUA

>  <pre-steady-state target cleavage rate>
0.903

$$$$
>  <Construct sequence>
UCCAGCUACAGCUUGGAUAGUAUUUAGUUA

>  <pre-steady-state target cleavage rate>
1.31

$$$$
>  <Construct sequence>
AGGACCUACUGCUUGCAUUGUAUUUAGUUA

>  <pre-steady-state target cleavage rate>
0.892

$$$$
>  <Construct sequence>
UGGACCUACACCUUGCUUAGUAUUUAGUUA

>  <pre-steady-state target cleavage rate>
1.1

$$$$
>  <Construct sequence>
UCCUGGUACAGCUUGCAAUGUAUUUAGAAA

>  <pre-steady-state target cleavage rate>
0.0194

$$$$
>  <Construct sequence>
AGGACCUACAGCUUGCUAUAGUAUUUAGUUA

>  <pre-steady-state target cleavage rate>
0.137

$$$$
>  <Construct sequence>
AGGACCUACACCUUGCUUAGUAUUUAGUUA

>  <pre-steady-state target cleavage rate>
1.17

$$$$
>  <Construct sequence>
UGGACCAACAGCUUCCAUAGUAUUUAGUUA

>  <pre-steady-state target cleavage rate>
0.0364

$$$$
>  <Construct sequence>
AGGACCUACAGCUCUGCAUAGUAUUUAGUUA

>  <pre-steady-state target cleavage rate>
1.56

$$$$
>  <Construct sequence>
UCGUGCUACAGCUUGCAUAGUAUUUAGUUA

>  <pre-steady-state target cleavage rate>
1.38

$$$$
>  <Construct sequence>
AGGACCUACAGCAUGCAUACUAUUUAGUUA

>  <pre-steady-state target cleavage rate>
0.39

$$$$
>  <Construct sequence>
UCCUCCAACAGCUUGGAUAGUAUUUAGUUA

>  <pre-steady-state target cleavage rate>
1.3

$$$$
>  <Construct sequence>
UGGGCCUACAGCUUGCAUAGUAUUUAGUUA

>  <pre-steady-state target cleavage rate>
1.39

$$$$
>  <Construct sequence>
UGGACCUACAGCUGGCAUAGUAUUUAGUUA

>  <pre-steady-state target cleavage rate>
1.04

$$$$
>  <Construct sequence>
AGGACCAACAGCUUCCAUAGUAUUUAGUUA

>  <pre-steady-state target cleavage rate>
0.0962

$$$$
>  <Construct sequence>
AGGGCCUACAGCUUGCAUAGUAUUUAGUUA

>  <pre-steady-state target cleavage rate>
1.39

$$$$
>  <Construct sequence>
UCCUGGAUGAGCUUGAAUAGUAUUUAGUUA

>  <pre-steady-state target cleavage rate>
0.944

$$$$
>  <Construct sequence>
UGGACCUACAGCUGCAUAGUAUUUAGUUA

>  <pre-steady-state target cleavage rate>
1.37

$$$$
>  <Construct sequence>
AGGACCUACAGCUAUGCAUAGUAUUUAGUUA

>  <pre-steady-state target cleavage rate>
0.962

$$$$
>  <Construct sequence>
UGGACCUACAGCUAUGCAUAGUAUUUAGUUA

>  <pre-steady-state target cleavage rate>
1.24

$$$$
>  <Construct sequence>
AGGACCUACAGCUUGCAAUGUAUUUACAAA

>  <pre-steady-state target cleavage rate>
0.0775

$$$$
>  <Construct sequence>
UCCUCCUACAGCUCUGCAUAGUAUUUAGUUA

>  <pre-steady-state target cleavage rate>
1.03

$$$$
>  <Construct sequence>
UCGACCUACAGCUGCAUAGUAUUUAGUUA

>  <pre-steady-state target cleavage rate>
1.3

$$$$
>  <Construct sequence>
UGGACCUACAGCUUAGCAUAGUAUUUAGUUA

>  <pre-steady-state target cleavage rate>
1.45

$$$$
>  <Construct sequence>
UCCUGGUACUGCUUGCAUAGUAAUUAGUUA

>  <pre-steady-state target cleavage rate>
0.313

$$$$
>  <Construct sequence>
UGGACCUACAGCAAGCAUAGUAUUUACAAA

>  <pre-steady-state target cleavage rate>
0.273

$$$$
>  <Construct sequence>
UCCUGGAACAGCUUGCUAUGUAUUUAGUAA

>  <pre-steady-state target cleavage rate>
0.0313

$$$$
>  <Construct sequence>
UCGAGCUACAGCUUGGAUAGUAUUUAGUUA

>  <pre-steady-state target cleavage rate>
1.11

$$$$
